Biological target: human TLR7 (Homo sapiens, UniProt Q9NYK1)
Sequence (Q9NYK1 27-1049): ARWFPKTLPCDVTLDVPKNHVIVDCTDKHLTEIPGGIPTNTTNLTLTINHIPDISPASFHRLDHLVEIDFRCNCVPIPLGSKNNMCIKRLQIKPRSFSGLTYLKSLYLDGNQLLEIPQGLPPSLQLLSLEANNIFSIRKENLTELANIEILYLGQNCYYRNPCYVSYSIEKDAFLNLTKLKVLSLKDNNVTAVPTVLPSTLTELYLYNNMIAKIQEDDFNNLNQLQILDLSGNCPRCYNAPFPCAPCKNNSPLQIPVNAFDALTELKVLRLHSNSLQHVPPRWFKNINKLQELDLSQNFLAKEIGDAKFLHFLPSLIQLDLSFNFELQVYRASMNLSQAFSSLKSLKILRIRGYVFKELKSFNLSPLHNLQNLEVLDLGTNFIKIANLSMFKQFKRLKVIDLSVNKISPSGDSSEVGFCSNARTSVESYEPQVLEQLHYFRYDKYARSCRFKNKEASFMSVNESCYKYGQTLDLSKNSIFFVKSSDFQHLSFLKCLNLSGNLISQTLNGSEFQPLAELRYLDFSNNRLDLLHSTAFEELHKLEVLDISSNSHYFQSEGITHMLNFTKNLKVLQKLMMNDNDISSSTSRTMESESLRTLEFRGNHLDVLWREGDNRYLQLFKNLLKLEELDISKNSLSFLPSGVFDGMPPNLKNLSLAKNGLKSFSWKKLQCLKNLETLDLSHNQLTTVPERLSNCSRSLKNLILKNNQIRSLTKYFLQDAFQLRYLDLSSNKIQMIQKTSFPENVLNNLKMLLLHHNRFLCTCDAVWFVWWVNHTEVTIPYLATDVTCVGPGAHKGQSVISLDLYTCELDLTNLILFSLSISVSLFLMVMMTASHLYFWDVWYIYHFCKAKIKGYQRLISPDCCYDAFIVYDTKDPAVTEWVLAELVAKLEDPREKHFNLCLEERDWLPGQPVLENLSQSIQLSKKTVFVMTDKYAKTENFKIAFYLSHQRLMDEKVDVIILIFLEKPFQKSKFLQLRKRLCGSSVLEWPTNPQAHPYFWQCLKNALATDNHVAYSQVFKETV
Assay: HEK293-Blue-hTLR-7 cells assay (SEAP reporter, R848 stimulation)
Settings: HEK293-Blue-hTLR7 cells, R848, 20 hrs; read-out: HEK/hTLR7 IC50
Method: The following tests were carried out in order to determine the activity of the compounds of formula (I) and (Ia) in HEK293-Blue-hTLR-7/8/9 cells assay. A stable HEK293-Blue-hTLR-7 cell line was purchased from InvivoGen (Cat. #: hkb-htlr7, San Diego, California, USA). These cells were originally designed for studying the stimulation of human TLR7 by monitoring the activation of NF-κB. […]
Reported endpoint: IC50 (nM)

- Compound: "C[C@H]1CN(c2ccnc3c2cnn3C)Cc2ccc(OC[C@H]3CNCCN3C)cc21 [Example 43]"
  Measured number: 8
- Compound: "Cc1cc(N2Cc3ccc(N4CCC(N)CC4)nc3[C@@H](C)C2)c2cnn(C)c2n1 [Example 58]"
  Measured number: 2
- Compound: "C[C@H]1CN(c2ccnc3c2cnn3C)Cc2ccc(N3CCNC(CO)C3)cc21 (some centres unmarked) [Example 49]"
  Measured number: 5
- Compound: "C[C@H]1CN(c2ccnc3c2cnn3C)Cc2ccc(N3CC4(CCNCC4)OC3=O)cc21 [Example 26]"
  Measured number: 7
- Compound: "C[C@H]1CN(c2ccnc3c2cnn3C)Cc2ccc(N3CCN(CCN(C)C)CC3)cc21 [Example 38]"
  Measured number: 3
- Compound: "C[C@H]1CN(c2ccnc3c2cnn3C)Cc2ccc(N3C[C@@H](N)[C@H](O)C3)cc21 [Example 46]"
  Measured number: 10
- Compound: "Cc1cc(N2Cc3ccc(N4CCNCC4)nc3[C@@H](C)C2)c2cnn(C)c2n1 [Example 66]"
  Measured number: 8
- Compound: "CO[C@@H]1CN(c2ccc3c(c2)[C@@H](C)CN(c2ccnc4c2cnn4C)C3)C[C@H]1N [Example 20]"
  Measured number: 3
